The reported measurements were obtained from the supplement of paper PMC8728848.

Each entry below carries its recorded glycan array binding signal (z-score).
Target: Gal4S6S(b1-4)GlcNAc
Experiment: glycan array binding signal (z-score within array); higher = stronger binding
Details: glycan notation: IUPAC condensed, linker removed
About 410 targets per protein were measured; listed, in parts, are those with the strongest signals and a random draw of the rest.

Request the reported glycan array binding signal (z-score) associated with DGL (Dioclea grandiflora), P08902 (protein) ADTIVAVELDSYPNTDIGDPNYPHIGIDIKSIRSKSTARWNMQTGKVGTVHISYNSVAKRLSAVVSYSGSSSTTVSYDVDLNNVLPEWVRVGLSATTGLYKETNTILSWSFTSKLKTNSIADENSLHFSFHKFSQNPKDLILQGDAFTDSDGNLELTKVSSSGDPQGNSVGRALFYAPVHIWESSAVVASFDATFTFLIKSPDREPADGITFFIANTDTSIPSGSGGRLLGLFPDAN -0.183

Please turn your attention to the following entry.
Quick one: glycan array binding signal (z-score) for ASA (Allium sativum) (protein) KAHEKERMGRNTPSAKLMSIAAVAAILTILASTCMARNLLTNGEGLYAGQSLNVEPYHFIMQEDCNLVLYDHSTAVWATNTDIPGKKECRAVLQSDGNFVVYDADGRPLWASHSVRGNGNYVLVLQEDGNVVIYGSDIWSTGTYVKAARGPVVVAMNGTVDGGSLIRPVIVNKNHVPVIRKVGTLSRNILRNDEGLYAGQSLDVEPYHFIMHEDCNLVLYDHSTAVWASNTDIPGKKGCKAVLQSDGNFVVYDAEGRSLWASHSVRGNGNYVLVLQEDGNVVIYGSDIWSTDTYRKSARGPVIRKVGTLAGAA ? -0.222
